# Test system: VDR homodimer (NR concentration 270 nM)
# methodSummary: PBM binding z-score (relative to random genomic background probes); higher = stronger binding; sequences stand for … in GC…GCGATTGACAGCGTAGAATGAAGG
measurementKind: PBM binding z-score
API doc: respond with a numeric literal and nothing else, no unit.

Study these solved cases before continuing.
CCTCGGAAGACAGAAGGTCAGAGCTGTCCGCTTT: 0.00286
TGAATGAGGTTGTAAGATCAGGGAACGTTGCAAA: -0.21
TTACCAATGTGAAGGTCGTTGATCCCTCTGTAGA: 1.04
TCTTGTAGATCAATACAGGTTAAGAAAGTGCGCT: 0.463

Measured PBM binding z-score, CAAACTTGGTCACAGAGGTCAAAGTCCGTGCGTA : 4.8

Short answer for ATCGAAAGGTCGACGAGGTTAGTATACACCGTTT : PBM binding z-score was 2.31

Value of PBM binding z-score reported for the sequence ACTATTAGTTGAGACGAGGGCAACGGATAGGTTG is 0.875

The value of PBM binding z-score measured for the sequence AATACAGGGTCATCGTAGGCCTGAGTACGCACAG turned out to be 3.73

Item: GCTTGTAGACCAAGGTTAAGAAAGACTAAGCTAA | PBM binding z-score: -0.0799

Per the records, this sequence ( TCATCTAGGTAAATGCTAGGTGAAAGTCCGATCT ) has PBM binding z-score equal to -0.208

Noted for CAAACTAGGTCACAGGTCAAAGTCGAGCCAACCA : its PBM binding z-score reads 2.12

The values you see were collected from the supplement of paper PMC6555819.
